Data provenance: BigSolDB 2.1

- condition_notes: in ethyl acetate, 318.15 K
reported_endpoint: solubility (mole fraction)

Which solubility (mole fraction) value belongs to CC[C@@H](C(=O)[C@@H](C)[C@@H](O)[C@H](C)CCc1ccc(C)c(O)c1C(=O)[O-])[C@H]1O[C@](CC)([C@H]2CC[C@](O)(CC)[C@H](C)O2)C[C@@H]1C.[Na+] ? 0.00596

---

- condition_notes: in ethanol, 323.15 K
reported_endpoint: solubility (mole fraction)
Answer as a number with no unit attached.

Which solubility (mole fraction) value belongs to CC[C@@H](C(=O)[C@@H](C)[C@@H](O)[C@H](C)CCc1ccc(C)c(O)c1C(=O)[O-])[C@H]1O[C@](CC)([C@H]2CC[C@](O)(CC)[C@H](C)O2)C[C@@H]1C.[Na+] ? 0.00564

---

- condition_notes: in ethanol, 288.15 K
reported_endpoint: solubility (mole fraction)
Answer as a number with no unit attached.

Which solubility (mole fraction) value belongs to CC[C@@H](C(=O)[C@@H](C)[C@@H](O)[C@H](C)CCc1ccc(C)c(O)c1C(=O)[O-])[C@H]1O[C@](CC)([C@H]2CC[C@](O)(CC)[C@H](C)O2)C[C@@H]1C.[Na+] ? 0.00246

---

- condition_notes: in methanol, 308.15 K
reported_endpoint: solubility (mole fraction)
Answer as a number with no unit attached.

Which solubility (mole fraction) value belongs to CC[C@@H](C(=O)[C@@H](C)[C@@H](O)[C@H](C)CCc1ccc(C)c(O)c1C(=O)[O-])[C@H]1O[C@](CC)([C@H]2CC[C@](O)(CC)[C@H](C)O2)C[C@@H]1C.[Na+] ? 0.00413

---

- condition_notes: in methanol, 288.15 K
reported_endpoint: solubility (mole fraction)

Which solubility (mole fraction) value belongs to CC[C@@H](C(=O)[C@@H](C)[C@@H](O)[C@H](C)CCc1ccc(C)c(O)c1C(=O)[O-])[C@H]1O[C@](CC)([C@H]2CC[C@](O)(CC)[C@H](C)O2)C[C@@H]1C.[Na+] ? 0.00293

---

- condition_notes: in isopropanol, 318.15 K
reported_endpoint: solubility (mole fraction)
Answer as a number with no unit attached.

Which solubility (mole fraction) value belongs to CC[C@@H](C(=O)[C@@H](C)[C@@H](O)[C@H](C)CCc1ccc(C)c(O)c1C(=O)[O-])[C@H]1O[C@](CC)([C@H]2CC[C@](O)(CC)[C@H](C)O2)C[C@@H]1C.[Na+] ? 0.00211

---

- condition_notes: in acetone, 323.15 K
reported_endpoint: solubility (mole fraction)
Answer as a number with no unit attached.

Which solubility (mole fraction) value belongs to CC[C@@H](C(=O)[C@@H](C)[C@@H](O)[C@H](C)CCc1ccc(C)c(O)c1C(=O)[O-])[C@H]1O[C@](CC)([C@H]2CC[C@](O)(CC)[C@H](C)O2)C[C@@H]1C.[Na+] ? 0.0135
